- Tested on: Staphylococcus aureus
- testProtocol: Antibacterial activity against erythromycin-resistant, methicillin-susceptible Staphylococcus aureus A265 by broth microdilution method
- Format: functional
recordedMetric: MIC (µg/mL)
Give bare numbers, in µg/mL.

// below: answered compounds
1. CC[C@H]1OC(=O)[C@H](C)[C@@H](OC(=O)Nc2nccs2)[C@H](C)[C@@H](O[C@@H]2O[C@H](C)C[C@H](N(C)C)[C@H]2O)[C@](C)(OC)C[C@@H](C)C(=O)[C@@H](C)[C@@H](OC)[C@]1(C)O : 32
2. CCOCCCNC(=O)O[C@H]1[C@H](C)[C@@H](O[C@@H]2O[C@H](C)C[C@H](N(C)C)[C@H]2O)[C@](C)(OC)C[C@@H](C)C(=O)[C@@H](C)[C@@H](OC)[C@](C)(O)[C@@H](CC)OC(=O)[C@@H]1C : 8
3. CC[C@H]1OC(=O)[C@H](C)[C@@H](OC(=O)NCCCOC(C)C)[C@H](C)[C@@H](O[C@@H]2O[C@H](C)C[C@H](N(C)C)[C@H]2O)[C@](C)(OC)C[C@@H](C)C(=O)[C@@H](C)[C@@H](OC)[C@]1(C)O : 4
4. CC[C@H]1OC(=O)[C@H](C)[C@@H](O[C@H]2C[C@@](C)(OC)[C@@H](O)[C@H](C)O2)[C@H](C)[C@@H](O[C@@H]2O[C@H](C)C[C@H](N(C)C)[C@H]2O)[C@](C)(OC)C[C@@H](C)C(=O)[C@H](C)[C@@H](O)[C@]1(C)O [CLARITHROMYCIN] : 4
5. CC[C@H]1OC(=O)[C@H](C)[C@@H](OC(=O)NCc2ccc(O)cc2)[C@H](C)[C@@H](O[C@@H]2O[C@H](C)C[C@H](N(C)C)[C@H]2O)[C@](C)(OC)C[C@@H](C)C(=O)[C@@H](C)[C@@H](OC)[C@]1(C)O : 0.25

Here is another compound to look at.
INPUT: Please report the recorded MIC for "CC[C@H]1OC(=O)[C@H](C)[C@@H](OC(=O)NCc2ccc(Cl)cc2)[C@H](C)[C@@H](O[C@@H]2O[C@H](C)C[C@H](N(C)C)[C@H]2O)[C@](C)(OC)C[C@@H](C)C(=O)[C@@H](C)[C@@H](OC)[C@]1(C)O" .
OUTPUT: 0.125
